Hi! I'm sharing some pKi results obtained with purified human Factor XIa (Homo sapiens (Human), UniProt P03951).
Sequence (P03951 388-625): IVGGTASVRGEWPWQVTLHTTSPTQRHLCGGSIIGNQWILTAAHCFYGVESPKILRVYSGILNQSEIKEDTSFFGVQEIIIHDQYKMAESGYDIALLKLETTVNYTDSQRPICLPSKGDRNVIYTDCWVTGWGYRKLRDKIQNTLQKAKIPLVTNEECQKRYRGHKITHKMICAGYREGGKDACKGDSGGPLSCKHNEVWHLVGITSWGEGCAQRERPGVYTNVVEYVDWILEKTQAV
Sequence (P03951 19-387 partner): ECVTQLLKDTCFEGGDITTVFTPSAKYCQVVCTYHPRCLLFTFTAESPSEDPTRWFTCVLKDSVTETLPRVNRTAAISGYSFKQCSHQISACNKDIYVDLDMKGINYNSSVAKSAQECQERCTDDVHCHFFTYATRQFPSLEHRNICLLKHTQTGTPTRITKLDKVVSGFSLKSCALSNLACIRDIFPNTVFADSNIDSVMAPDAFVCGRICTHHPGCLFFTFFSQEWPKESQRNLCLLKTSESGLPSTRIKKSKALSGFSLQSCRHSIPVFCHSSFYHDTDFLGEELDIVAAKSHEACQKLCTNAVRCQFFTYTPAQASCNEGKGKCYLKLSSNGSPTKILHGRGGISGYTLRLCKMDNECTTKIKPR
pKi: −log10 of the molar value.
Reported metric: pKi

Here are 3 compounds together with their reported answers.
INSERT INTO results (compound, reported_metric, value_reported) VALUES
  ('COC(=O)Nc1ccc2c(c1)NC(=O)C[C@H]1C[C@@H]1C[C@H](c1ccc(-c3c(F)ccc(Cl)c3F)c[n+]1[O-])c1cccc-2c1 (single isomer, unassigned) [Example 66]', 'pKi', 8.68),
  ('COC(=O)Nc1ccc2c(c1)NC(=O)CCCCC(c1ccc(-c3c(F)ccc(Cl)c3F)c[n+]1[O-])c1nc-2c[nH]1 (single isomer, unassigned) [Example 96-a]', 'pKi', 9.28),
  ('O=C1CCCC[C@H](c2ccc(-c3cc(Cl)ccc3-n3cnnn3)c[n+]2[O-])c2cccc(c2)-c2cc(C(=O)O)ccc2N1 [Example 4-a]', 'pKi', 9.51);

[A] COC(=O)Nc1ccc2c(c1)NC(=O)CCCC[C@H](c1ccc(-c3cc(Cl)ccc3-n3cccn3)c[n+]1[O-])c1nc-2c(C)[nH]1 (single isomer, unassigned) [Example 139]
[B] Cc1[nH]c2nc1-c1ccc(N)cc1NC(=O)CCCC[C@@H]2c1ccc(-c2c(F)ccc(Cl)c2F)c[n+]1[O-] (single isomer, unassigned) [Example 128]
Which record shows the lower pKi: the first, A , or the second, B ? Which one? Tell me its label. A

====

- Test target: purified Human plasma Kallikrein (Homo sapiens (Human), UniProt P03952)
- Sequence (P03952 391-638): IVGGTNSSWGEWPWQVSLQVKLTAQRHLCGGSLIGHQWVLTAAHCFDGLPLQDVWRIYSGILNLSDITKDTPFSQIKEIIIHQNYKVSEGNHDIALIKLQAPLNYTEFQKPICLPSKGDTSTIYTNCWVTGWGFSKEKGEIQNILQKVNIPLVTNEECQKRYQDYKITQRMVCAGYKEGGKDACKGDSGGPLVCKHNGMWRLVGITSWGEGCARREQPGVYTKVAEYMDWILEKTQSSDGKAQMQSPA
- Sequence (P03952 20-390 partner): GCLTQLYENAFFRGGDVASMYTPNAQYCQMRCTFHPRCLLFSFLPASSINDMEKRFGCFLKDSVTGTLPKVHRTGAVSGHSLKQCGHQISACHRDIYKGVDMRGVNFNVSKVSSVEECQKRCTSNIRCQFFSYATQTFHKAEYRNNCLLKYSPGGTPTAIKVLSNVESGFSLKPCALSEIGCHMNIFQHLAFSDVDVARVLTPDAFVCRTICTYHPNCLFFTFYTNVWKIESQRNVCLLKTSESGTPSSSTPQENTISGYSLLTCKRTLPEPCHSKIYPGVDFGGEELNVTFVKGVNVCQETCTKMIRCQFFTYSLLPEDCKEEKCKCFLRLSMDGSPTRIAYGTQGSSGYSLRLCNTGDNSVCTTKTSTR
- Assay overview: Kallikrein Assay
- Format: biochemical
- Stated conditions: purified Human plasma Kallikrein 0.5 nM; substrate Acetyl-K-P-R-AFC; 50 mM HEPES pH 7.4; Ki from IC50 by Cheng Prusoff
pKi: −log10 of the molar value.
Reported metric: pKi

INSERT INTO results (compound, test_target, value_reported) VALUES
  ('C[C@@H]1CCC[C@@H](c2ccc(-c3cc(Cl)ccc3-n3cnnn3)c[n+]2[O-])c2cccc(c2)-c2cc(F)ccc2NC1=O', 'purified Human plasma Kallikrein (Homo sapiens (Human), UniProt P03952)', 7.10),
  ('O=C1CCCCC(c2ccc(-c3cc(Cl)ccc3-n3cc(C(F)F)nn3)c[n+]2[O-])c2nc(c[nH]2)-c2cc(F)ccc2N1 (single isomer, unassigned)', 'purified Human plasma Kallikrein (Homo sapiens (Human), UniProt P03952)', 7.76),
  ('COC(=O)Nc1ccc2c(c1)NC(=O)CCCCC(c1ccc(-c3c(F)ccc(Cl)c3F)c[n+]1[O-])c1nc-2c[nH]1 (single isomer, unassigned)', 'purified Human plasma Kallikrein (Homo sapiens (Human), UniProt P03952)', 9.22),
  ('C[C@H]1CCC[C@@H](c2ccc(-c3cc(Cl)ccc3-n3cc(C(F)(F)F)cn3)c[n+]2[O-])c2cccc(c2)-c2c(cnn2C(F)F)NC1=O (single isomer, unassigned)', 'purified Human plasma Kallikrein (Homo sapiens (Human), UniProt P03952)', 6.79),
  ('COC(=O)Nc1ccc2c(c1)NC(=O)CCCCC(c1ccc(-c3cc(Cl)ccc3-n3cnnn3)c[n+]1[O-])c1cc(F)cc-2c1 (centres unmarked)', 'purified Human plasma Kallikrein (Homo sapiens (Human), UniProt P03952)', 8.84),
  ('O=C1CCCC[C@H](c2ccc(-c3cc(Cl)ccc3-n3cc(C(F)(F)F)cn3)c[n+]2[O-])c2cccc(c2)-c2c(cnn2C(F)F)N1 (single isomer, unassigned)', 'purified Human plasma Kallikrein (Homo sapiens (Human), UniProt P03952)', 6.42);

[1] COC(=O)Nc1ccc2c(c1)NC(=O)CCCC[C@H](c1ccc(-c3cc(Cl)ccc3-n3cccn3)c[n+]1[O-])c1nc-2c(C)[nH]1 (single isomer, unassigned)
[2] COC(=O)Nc1ccc2c(c1)NC(=O)CCCC[C@H](c1ccc(-c3c(F)cccc3F)c[n+]1[O-])c1nc-2c(C)[nH]1 (single isomer, unassigned)
Between 1 and 2 , which one shows the smaller pKi number? Please reply using the label of the selected record. 1
(1: 7.65, 2: 8.77)
